MEASURED_TARGET: human cloned CHRM2 receptor (M2_CHO cells) (Homo sapiens)
Construct: expressed in transfected cells; host or cells: CHO-K1
Sequence (P08172 whole entry): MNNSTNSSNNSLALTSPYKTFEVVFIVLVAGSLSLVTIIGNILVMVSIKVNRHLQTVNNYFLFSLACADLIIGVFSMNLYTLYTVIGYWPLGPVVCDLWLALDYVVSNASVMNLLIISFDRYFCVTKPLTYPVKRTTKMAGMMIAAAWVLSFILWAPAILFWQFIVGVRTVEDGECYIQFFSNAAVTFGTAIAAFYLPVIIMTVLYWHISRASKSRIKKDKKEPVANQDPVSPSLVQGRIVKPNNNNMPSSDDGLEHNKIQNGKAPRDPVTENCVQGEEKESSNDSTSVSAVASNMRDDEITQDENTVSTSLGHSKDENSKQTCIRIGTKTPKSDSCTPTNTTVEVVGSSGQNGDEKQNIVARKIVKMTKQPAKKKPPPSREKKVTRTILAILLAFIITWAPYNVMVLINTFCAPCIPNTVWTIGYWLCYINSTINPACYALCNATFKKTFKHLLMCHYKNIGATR
ASSAY_COMMENT: CHRM2 Ca++ Flux Assay (agonist mode, FDSS 7000EX)
Format: cell-based
ASSAY_SETUP: Percent Activity measured to EC100 of Carbachol
MEASURED_QUANTITY: M2 FDSS PA (%)

See these solved cases before continuing.
For this compound ( O=C(N1CC2(CC[C@@H](N3CCC(c4ccccc4OC4CC5(COC5)C4)CC3)C2)C1)C1(F)CC1 (single isomer, unassigned) [Example 11D] ), measured M2 FDSS PA is 0

For this compound ( Cc1nnc(COc2ccccc2C2CCN([C@@H]3CCC4(C3)CN(C(=O)C3(F)CC3)C4)CC2)o1 (single isomer, unassigned) [Example 7W] ), measured M2 FDSS PA is 0

P: FC(F)(F)Oc1ccccc1C1CCN([C@@H]2CCC3(C2)CN(c2ncco2)C3)CC1 (single isomer, unassigned) [Example 10L]
Q: O=C(N1CC2(CC[C@@H](N3CCC(c4ccccc4OCc4ncccn4)CC3)C2)C1)C1(F)CC1 (single isomer, unassigned) [Example 7M]
R: FC(F)(F)Oc1ccccc1C1CCN([C@@H]2CCC3(C2)CN(c2nncs2)C3)CC1 (single isomer, unassigned) [Example 10N]
S: Cc1nnc(COc2ccccc2C2CCN([C@@H]3CCC4(C3)CN(C(=O)C3(F)CC3)C4)CC2)s1 (single isomer, unassigned) [Example 7R]
Query :: List the 4 entries from lowest M2 FDSS PA to highest M2 FDSS PA value. Answer format: the labels, in the requested order.
Result :: Q, S, R, P
(Q: 0%, S: 15%, R: 28%, P: 44%)
